# TESTED_SYSTEM: T1, human LAG3 expressed on cells (human, UniProt P18627 23-525)
# T1 sequence (looked up): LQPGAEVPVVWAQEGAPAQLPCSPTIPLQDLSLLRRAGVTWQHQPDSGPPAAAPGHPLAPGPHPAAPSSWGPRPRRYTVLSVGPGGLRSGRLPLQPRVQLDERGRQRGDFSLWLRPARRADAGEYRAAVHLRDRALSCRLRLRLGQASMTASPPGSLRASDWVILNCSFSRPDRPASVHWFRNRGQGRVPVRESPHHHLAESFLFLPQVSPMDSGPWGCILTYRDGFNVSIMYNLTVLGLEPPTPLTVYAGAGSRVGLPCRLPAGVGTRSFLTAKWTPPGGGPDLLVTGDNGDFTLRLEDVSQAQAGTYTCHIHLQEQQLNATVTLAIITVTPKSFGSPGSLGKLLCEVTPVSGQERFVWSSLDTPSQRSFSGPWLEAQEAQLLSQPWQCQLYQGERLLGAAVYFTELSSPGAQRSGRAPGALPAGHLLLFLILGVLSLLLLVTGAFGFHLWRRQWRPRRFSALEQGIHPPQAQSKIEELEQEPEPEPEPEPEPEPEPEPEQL
# EXPERIMENT: cell-based or functional assay
OBSERVATION_TYPE: IL-2, % of BMS, at 0.045724737 ug/mL (%)
Give bare numbers, in %.

Kindly give each listed record's IL-2, % of BMS, at 0.045724737 ug/mL.
1. combination of sdAbs 25 and 18 (other) VHH 1: QLQLVESGGGLVQAGGSLRLSCAASGSIESFSFMGWYRQAPGKQRELVAGFTGAASLSFSTYTDAVKGRFTISRDNAKNTVYLQMNSLKPEDTAVYFCNVDPWSQSWPGRYWGQGTQVTVSS VHH 2: QVQLVESGGGLVQPGGSLRLSCAASGFTLNEHAIGWFRRAPGKEREGVSCISSSDGSTYYHDSVKGRFNMSRDDAKNSVYLQMSSLKPEDTAIYYCAAALGRDCQGGQWKTSSWGQGTQVTVSS
2. sdAb No. 27 (VHH, Fc of the tested form not described; also called sdAb 27; not shown: Fc part implied by anti-human Fc capture and anti-human IgG Fc detection) VHH: QVQLVESGGGLVQPGGSLRLSCAASGFTLDYYAIGWFRQAPGKEREGVSCIRSSDGSTYYADSVKGRFTISSDNTKNTVYLQMNSLKPEDTAVYYCATDRYSDCRGPYENWGQGTQVTVSS
3. sdAb No. 25 (VHH, Fc of the tested form not described; also called sdAb 25; sdAb #25; not shown: Fc part implied by anti-human Fc capture and anti-human IgG Fc detection) VHH: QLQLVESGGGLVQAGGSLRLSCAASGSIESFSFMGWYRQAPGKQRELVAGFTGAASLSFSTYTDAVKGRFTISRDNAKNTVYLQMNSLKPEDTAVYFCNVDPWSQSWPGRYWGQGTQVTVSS

Response:
1. 13.2
2. 12.1
3. 8.03
